I'd be grateful if you could share measured pIC50 for these entries.
- Test system: KARPAS-299
- assay.name: cells
- Type: functional, cell-based
- test.settings: Homo sapiens
- Description: SANGER: Inhibition of human KARPAS-299 cell growth in a cell viability assay.
pIC50: −log10 of the molar value.

Exercise: # pIC50 lookup, item C=C1C(=O)O[C@@H]2C3O[C@]3(C)CC/C=C(\C)CC[C@@H]12 (stereo partly drawn)
Key: < 5.30

Exercise: # pIC50 lookup, item `CC(=O)O[C@@]12CO[C@@H]1C[C@H](O)[C@@]1(C)C(=O)[C@H](O)C3=C(C)[C@@H](OC(=O)[C@H](O)[C@@H](NC(=O)OC(C)(C)C)c4ccccc4)C[C@@](O)([C@@H](OC(=O)c4ccccc4)[C@H]21)C3(C)C`
Key: < 8.00

Exercise: # pIC50 lookup, item `O=C1N=C(NCc2cccs2)S/C1=C\c1ccc2ncccc2c1`
Key: < 5.30

Exercise: # pIC50 lookup, item `CCC(=O)N1CCN(c2ccc(-n3c(=O)ccc4cnc5ccc(-c6cnc7ccccc7c6)cc5c43)cc2C(F)(F)F)CC1`
Key: 6.91

Exercise: # pIC50 lookup, item `CN(c1ncccc1CNc1nc(Nc2ccc3c(c2)CC(=O)N3)ncc1C(F)(F)F)S(C)(=O)=O`
Key: < 5.59

Exercise: # pIC50 lookup, item `O=c1cc(-c2cccc3c2Sc2ccccc2S3)oc(N2CCOCC2)c1`
Key: < 5.00

Exercise: # pIC50 lookup, item `COc1ccc(C2=N[C@@H](c3ccc(Cl)cc3)[C@@H](c3ccc(Cl)cc3)N2C(=O)N2CCNC(=O)C2)c(OC(C)C)c1`
Key: < 5.10

Exercise: # pIC50 lookup, item `COc1ccc(-c2ccc3c(N4CCOC[C@@H]4C)nc(N4CCOC[C@@H]4C)nc3n2)cc1CO`
Key: < 5.70

----------
- System: PA-1;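 further: IC50 for suppression of PA-1 cell proliferation, determined with a cell viability read-out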
- assay.name: cells
- Format: functional, cell-based, Homo sapiens
- test.settings: Homo sapiens, PA-1
- Description: SANGER: Inhibition of human PA-1 cell growth in a cell viability assay.
assay.readout: IC50 (nM)
Express the result in nM but write the number alone.

Exercise: # IC50 lookup, item O=C(c1cc(Cc2n[nH]c(=O)c3ccccc23)ccc1F)N1CCN(C(=O)C2CC2)CC1 [OLAPARIB]
Key: 4250

Exercise: # IC50 lookup, item `O=C1N=C(NCc2cccs2)S/C1=C\c1ccc2ncccc2c1`
Key: 1230

Exercise: # IC50 lookup, item Nc1ccn([C@@H]2O[C@H](CO)[C@@H](O)[C@@H]2O)c(=O)n1 [CYTARABINE]
Key: 187

Exercise: # IC50 lookup, item COc1ccc(C2=N[C@@H](c3ccc(Cl)cc3)[C@@H](c3ccc(Cl)cc3)N2C(=O)N2CCNC(=O)C2)c(OC(C)C)c1 [NUTLIN-3]
Key: 871

----------
I'd be grateful if you could share measured IC50 for these entries.
- Test system: KE-37;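 further: growth inhibition of KE-37 cells, read out with a cell viability assay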
- assay.name: cells
- Format: functional, cell-based
- test.settings: Homo sapiens
- Description: SANGER: Inhibition of human KE-37 cell growth in a cell viability assay.
Express the result in nM but write the number alone.

Exercise: # IC50 lookup, item Nc1ccn([C@@H]2O[C@H](CO)[C@@H](O)[C@@H]2O)c(=O)n1 [CYTARABINE]
Key: 111

Exercise: # IC50 lookup, item CN(Cc1cnc2nc(N)nc(N)c2n1)c1ccc(C(=O)N[C@@H](CCC(=O)O)C(=O)O)cc1 [METHOTREXATE]
Key: 15.5

----------
- Tested on: A3-KAW
- assay.name: cells
- Type: functional, cell-based
- test.settings: Homo sapiens
- Description: SANGER: Inhibition of human A3-KAW cell growth in a cell viability assay.
pIC50: −log10 of the molar value.
assay.readout: pIC50

Exercise: So what pIC50 did COc1cc([C@@H]2c3cc4c(cc3[C@@H](O[C@@H]3O[C@@H]5CO[C@@H](C)O[C@H]5[C@H](O)[C@H]3O)[C@H]3COC(=O)[C@H]23)OCO4)cc(OC)c1O [ETOPOSIDE] get with A3-KAW?
Key: 6.45

Exercise: So what pIC50 did COc1cc(F)c(F)c(Nc2ccc(I)cc2F)c1NS(=O)(=O)C1(CC(O)CO)CC1 (centres undefined) get with A3-KAW?
Key: < 5.30

Exercise: So what pIC50 did `CN(c1ncccc1CNc1nc(Nc2ccc3c(c2)CC(=O)N3)ncc1C(F)(F)F)S(C)(=O)=O` get with A3-KAW?
Key: < 5.59

Exercise: So what pIC50 did `Cc1cnc(-c2cnc(NCCNc3ccc(C#N)cn3)nc2-c2ccc(Cl)cc2Cl)[nH]1` get with A3-KAW?
Key: < 5.59

Exercise: So what pIC50 did `Cn1cncc1[C@@](N)(c1ccc(Cl)cc1)c1ccc2c(c1)c(-c1cccc(Cl)c1)cc(=O)n2C` get with A3-KAW?
Key: 6.05

Exercise: So what pIC50 did `CN(C)C/C=C/C(=O)Nc1cc2c(Nc3ccc(F)c(Cl)c3)ncnc2cc1O[C@H]1CCOC1` get with A3-KAW?
Key: < 6.30

Exercise: So what pIC50 did `CS(=O)(=O)CCNCc1ccc(-c2ccc3ncnc(Nc4ccc(OCc5cccc(F)c5)c(Cl)c4)c3c2)o1` get with A3-KAW?
Key: < 5.70

Exercise: So what pIC50 did `O=c1cc(-c2cccc3c2Sc2ccccc2S3)oc(N2CCOCC2)c1` get with A3-KAW?
Key: < 5.00

Exercise: So what pIC50 did `CO[C@H]1C[C@@H]2CC[C@@H](C)[C@@](O)(O2)C(=O)C(=O)N2CCCC[C@H]2C(=O)O[C@H]([C@H](C)C[C@@H]2CC[C@@H](O)[C@H](OC)C2)CC(=O)[C@H](C)/C=C(\C)[C@@H](O)[C@@H](OC)C(=O)[C@H](C)C[C@H](C)/C=C/C=C/C=C/1C` get with A3-KAW?
Key: 8.52

----------
- System: SJRH30
- assay.name: cells
- Format: functional, cell-based
- test.settings: Homo sapiens
- Description: SANGER: Inhibition of human SJRH30 cell growth in a cell viability assay.
pIC50: −log10 of the molar value.
assay.readout: pIC50

Exercise: # pIC50 lookup, item Cc1ccc(Nc2nccc(N(C)c3ccc4c(C)n(C)nc4c3)n2)cc1S(N)(=O)=O [PAZOPANIB]
Key: < 5.10

Exercise: # pIC50 lookup, item `CCOc1nc(NC(=O)Cc2cc(OC)ccc2OC)cc(N)c1C#N`
Key: < 5.00

Exercise: # pIC50 lookup, item CN(c1ncccc1CNc1nc(Nc2ccc3c(c2)CC(=O)N3)ncc1C(F)(F)F)S(C)(=O)=O [PF-00562271]
Key: < 5.59

Exercise: # pIC50 lookup, item Cn1cncc1[C@@](N)(c1ccc(Cl)cc1)c1ccc2c(c1)c(-c1cccc(Cl)c1)cc(=O)n2C [TIPIFARNIB]
Key: 5.06

Exercise: # pIC50 lookup, item O=c1cc(-c2cccc3c2Sc2ccccc2S3)oc(N2CCOCC2)c1 [KU-55933]
Key: < 5.00

Exercise: # pIC50 lookup, item COc1cc([C@@H]2c3cc4c(cc3[C@@H](O[C@@H]3O[C@@H]5CO[C@@H](C)O[C@H]5[C@H](O)[C@H]3O)[C@H]3COC(=O)[C@H]23)OCO4)cc(OC)c1O [ETOPOSIDE]
Key: 5.33

Exercise: # pIC50 lookup, item `COC(=O)CNC(=O)C(=O)OC`
Key: 2.81

Exercise: # pIC50 lookup, item Cc1cnc(-c2cnc(NCCNc3ccc(C#N)cn3)nc2-c2ccc(Cl)cc2Cl)[nH]1 [LADUVIGLUSIB]
Key: < 5.59

Exercise: # pIC50 lookup, item Cc1cc([C@@H](C)Nc2ccccc2C(=O)O)c2nc(N3CCOCC3)cc(=O)n2c1 [AZD-6482]
Key: < 5.29

Exercise: # pIC50 lookup, item C=CCc1cccc(/C=N/NC(=O)CN2CCN(Cc3ccccc3)CC2)c1O [PAC-1]
Key: < 5.59

Exercise: # pIC50 lookup, item COc1cc(F)c(F)c(Nc2ccc(I)cc2F)c1NS(=O)(=O)C1(CC(O)CO)CC1 (stereo unspecified)
Key: < 5.30

----------
I'd be grateful if you could share measured pIC50 for these entries.
- System: NCI-H1436;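 further: growth suppression of human NCI-H1436 cells, determined with a cell viability readout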
- assay.name: cells
- Type: functional, cell-based
- test.settings: Homo sapiens
- Description: SANGER: Inhibition of human NCI-H1436 cell growth in a cell viability assay.
pIC50: −log10 of the molar value.

Exercise: # pIC50 lookup, item CNC(=O)c1cc(Oc2ccc(NC(=O)Nc3ccc(Cl)c(C(F)(F)F)c3)cc2)ccn1 [SORAFENIB]
Key: 5.91

Exercise: # pIC50 lookup, item CCC(=O)N1CCN(c2ccc(-n3c(=O)ccc4cnc5ccc(-c6cnc7ccccc7c6)cc5c43)cc2C(F)(F)F)CC1 [TORIN1]
Key: < 5.92

Exercise: # pIC50 lookup, item C=CCc1cccc(/C=N/NC(=O)CN2CCN(Cc3ccccc3)CC2)c1O [PAC-1]
Key: < 5.59

Exercise: # pIC50 lookup, item CO[C@H]1C[C@@H]2CC[C@@H](C)[C@@](O)(O2)C(=O)C(=O)N2CCCC[C@H]2C(=O)O[C@H]([C@H](C)C[C@@H]2CC[C@@H](O)[C@H](OC)C2)CC(=O)[C@H](C)/C=C(\C)[C@@H](O)[C@@H](OC)C(=O)[C@H](C)C[C@H](C)/C=C/C=C/C=C/1C [SIROLIMUS]
Key: < 7.00
